System tested: Cytochrome P450 1A2 (Homo sapiens, UniProt P05177)
Sequence (P05177 whole entry): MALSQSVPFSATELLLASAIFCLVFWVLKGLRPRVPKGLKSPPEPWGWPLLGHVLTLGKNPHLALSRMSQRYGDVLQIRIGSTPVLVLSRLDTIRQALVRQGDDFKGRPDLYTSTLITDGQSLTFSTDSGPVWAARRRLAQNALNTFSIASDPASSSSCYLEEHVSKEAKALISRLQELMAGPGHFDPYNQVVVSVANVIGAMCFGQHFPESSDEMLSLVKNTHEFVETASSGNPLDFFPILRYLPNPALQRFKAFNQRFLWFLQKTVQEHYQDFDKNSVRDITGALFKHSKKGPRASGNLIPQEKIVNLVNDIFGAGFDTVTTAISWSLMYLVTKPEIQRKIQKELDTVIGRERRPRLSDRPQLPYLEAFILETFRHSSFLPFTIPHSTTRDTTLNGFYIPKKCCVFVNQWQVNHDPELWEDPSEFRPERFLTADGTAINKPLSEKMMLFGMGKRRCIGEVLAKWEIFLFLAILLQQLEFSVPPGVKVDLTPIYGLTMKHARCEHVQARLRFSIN
pIC50: −log10 of the molar value.
Readout: pIC50

INSERT INTO measurements (compound_smiles, recorded_result) VALUES
  ('Cc1nc(N[C@H](C)c2cccc(C(F)F)c2F)c2cc3c(cc2n1)OCC[C@H]1CN(CC(F)(F)F)CCN31', '< 4.00');

###

Test details: Plasma protein binding in mouse at 2 uM preincubated for 1 hr by balanced dialysis based LC-MS/MS analysis
This section presents compounds with their documented fraction unbound at 1 h, 2 µM values.
Readout: fraction unbound at 1 h, 2 µM

INSERT INTO measurements (compound_smiles, readout, recorded_result) VALUES
  ('Cc1nc(N[C@H](C)c2cccc(C(F)F)c2F)c2cc3c(cc2n1)OCC[C@H]1CN(c2ccnn2C)CCN31', 'fraction unbound at 1 h, 2 µM', 0.079),
  ('Cc1nc(N[C@H](C)c2cccc(C(F)F)c2F)c2cc3c(cc2n1)OCC[C@H]1CN(CC(F)(F)F)CCN31', 'fraction unbound at 1 h, 2 µM', 0.001),
  ('Cc1nc(N[C@H](C)c2cccc(C(F)F)c2F)c2cc3c(cc2n1)OCC[C@H]1CN(C(=O)[C@@H]2CCOC2)CCN31', 'fraction unbound at 1 h, 2 µM', 0.006);

###

Test details: in vivo
Measurement conditions: ICR, mouse, po, 50 mg/kg
Readout: Tmax at 24 h (min)

INSERT INTO measurements (compound_smiles, units_of_measure, recorded_result) VALUES
  ('Cc1nc(N[C@H](C)c2cccc(C(F)F)c2F)c2cc3c(cc2n1)OCC[C@H]1CN(C(=O)[C@@H]2CCOC2)CCN31', 'min', 25),
  ('Cc1nc(N[C@H](C)c2cccc(C(F)F)c2F)c2cc3c(cc2n1)OCC[C@H]1CN(C)CCN31', 'min', 210),
  ('Cc1nc(N[C@H](C)c2cccc(C(F)F)c2F)c2cc3c(cc2n1)OCC[C@H]1CN(c2ccnn2C)CCN31', 'min', 19.8),
  ('Cc1nc(N[C@H](C)c2cccc(C(F)F)c2F)c2cc3c(cc2n1)OCC[C@H]1CN(CC(F)(F)F)CCN31', 'min', 50),
  ('Cc1nc(N[C@H](C)c2cccc(C(F)F)c2F)c2cc3c(cc2n1)OCC[C@H]1CN(CC2COC2)CCN31', 'min', 180),
  ('COCCN1CCN2c3cc4c(N[C@H](C)c5cccc(C(F)F)c5F)nc(C)nc4cc3OCC[C@H]2C1', 'min', 340),
  ('Cc1nc(N[C@H](C)c2cccc(C(F)F)c2F)c2cc3c(cc2n1)OCC[C@H]1CN(C(=O)C2COC2)CCN31', 'min', 22.8),
  ('Cc1nc(N[C@H](C)c2cccc(C(F)F)c2F)c2cc3c(cc2n1)OCC[C@H]1CN(C(=O)c2cccnc2)CCN31', 'min', 20);
